- System: HCC 2998
- experiment-notes: NCI tumour cell line growth inhibition, 48 h
Calls of active or inactive are those of the source. Rule as the data show it: active = GI50 up to about 1.1 µM and inactive = higher.
GI50 reference

Reference set, count: 4
# molecule, result
data = [
    ("C/C(=N\\NC(=S)N1CCN(c2ccccn2)CC1)c1ncccn1", "0.361 µM (active)"),
    ("COc1c(C)c(OC)c2c(c1O)[C@@H]1[C@@H]3Cc4c(OC)c(C)c(OC)c(O)c4[C@H](CNC(=O)c4ccc5ccccc5n4)N3[C@@H](C#N)[C@H](C2)N1C", "0.00014 µM (active)"),
    ("C(=C\\c1cc(CCc2nc3ccccc3[nH]2)n[nH]1)/c1ccccc1", "> 100 µM (inactive)"),
    ("CCCCCC(=O)NC(=S)Nc1nnn[nH]1", "> 100 µM (inactive)"),
]

Consider now this further molecule.
May I ask what GI50 has been recorded for CCC(C)C(NC(=O)c1c2ccccc2nc2ccccc12)C(=O)O (stereo not given) ?
> 100 µM (inactive)

====

- Test system: NCI-H23
- experiment-notes: NCI tumour cell line growth inhibition, 48 h
Active and inactive are the calls of the source. No stated cut-off is given here; in the data, active = GI50 up to about 1.1 µM and inactive = higher.
Please answer using one outcome listed in active, inactive

# compound, class
data = [
    ("CN1C/C(=C\\c2ccco2)c2nc(N)nc(-c3ccco3)c2C1", "inactive"),
    ("CCCCN(CC)CC(C(C)=O)c1c(O)c2ccccc2oc1=O (stereo not given)", "inactive"),
    ("CCOP(=O)(OCC)/C(C#N)=C/c1ccc[nH]1", "inactive"),
    ("Cc1ccc(NCC(=O)N2CC(=O)Nc3ccccc32)c(C)c1", "inactive"),
    ("Cc1cc(C)c(/C=N/NS(=O)(=O)c2ccccc2)c(C)c1", "inactive"),
    ("CC(=O)O[C@H]1CCC2[C@@H]3CC[C@]4(C)CC(=O)C=C[C@]4(C)C3CC[C@@]21C (stereo not given in full)", "inactive"),
]

Status in this test for N#CCCN(CCC#N)CCN(CCN(CCC#N)CCC#N)CCN(CCC#N)CCC#N ?
inactive

Status in this test for Cc1cccc(NC(=O)O/N=C(\Cl)C(C)C)c1 ?
inactive

Status in this test for O=S(=O)(/C=C/C=C/S(=O)(=O)c1ccccc1)c1ccccc1 ?
inactive

Status in this test for c1nnc(NCNc2nncs2)s1 ?
inactive

Status in this test for c1nc2nc[nH]c(SSc3[nH]cnc4ncnc3-4)c-2n1 ?
active

Status in this test for CN(C)Cc1cc(/N=N/c2ccc(Cl)cc2)ccc1O ?
inactive

Status in this test for Nc1ncnc2c1sc1nc3ccccc3n12 ?
inactive

Status in this test for O=c1[nH]nc(Cc2ccc(Cl)cc2)n1Nc1ccccc1 ?
inactive

Status in this test for CCOC(=O)C(C(N)=O)C1=Nc2cc([N+](=O)[O-])ccc2N/C1=C\C(=O)c1ccccc1 (stereo not given) ?
inactive

Status in this test for Cc1nc2c(o1)/C(=N\c1ccccc1)c1nc(C)oc1/C2=N/c1ccccc1 ?
inactive

Status in this test for O=C1NC(=S)NC(=O)C1C(c1ccc(Cl)cc1)C1C(=O)NC(=S)NC1=O.c1ccncc1 ?
inactive

Status in this test for Nc1ccccc1C(=O)/C=C/c1ccccc1O ?
inactive

Status in this test for COC(C)C(O)(C(=O)OCC1=CCN2CCC(O)C12)C(C)(C)O (stereo not given) ?
inactive

Status in this test for CCOC(=O)c1cc(Br)c(-c2cc(C)co2)[nH]1 ?
inactive

Status in this test for CCOC(=O)CNc1nc(=O)c2c(=O)oc(Cl)cc2o1 ?
inactive

Status in this test for COP(=O)(OC)/C(=C\c1cn(C(c2ccccc2)(c2ccccc2)c2ccccc2)cn1)NC(C)=O ?
inactive

Status in this test for Cc1ccc(N(O)C(C)(C)C)cc1 ?
inactive

Status in this test for O=C(O)c1cc(-c2ccc3cc(O)c(O)cc3c2)ccc1O ?
inactive

Status in this test for CS(=O)(=O)N(CCC#N)c1ccc(/C=N/NC(=O)CC(=O)Nc2cccc(Cl)c2)cc1 ?
inactive

====

GI50 reference
- Tested on: UACC-62
- experiment-notes: NCI tumour cell line growth inhibition, 48 h
The source made the active and inactive calls. Rule as the data show it: active = GI50 up to about 1.1 µM and inactive = higher.

Reference set, count: 8
# molecule, GI50
measured = [
    ("CC(=O)/N=C1\\C=C(NC(C)=O)C(=O)c2ccccc21", "2.35 µM (inactive)"),
    ("Cc1cc(C)c2c(c1)C(=O)/C(=C/c1ccccc1C(=O)O)C2", "89.5 µM (inactive)"),
    ("CCC(C)C(NC(=O)c1c2ccccc2nc2ccccc12)C(=O)O (centres undefined)", "> 100 µM (inactive)"),
    ("C=C(C)CC(C(=O)O)c1ccc(C)cc1 (centres undefined)", "> 100 µM (inactive)"),
    ("O=C(O)CN1C(=O)CN=C(c2ccccn2)c2cc(Cl)ccc21", "> 100 µM (inactive)"),
    ("C/C(=N\\NC(C)(C)C)c1sc(-c2nc(C)c(/C(C)=N/NC(C)(C)C)s2)nc1C", "> 100 µM (inactive)"),
    ("COc1cc(/N=N\\c2cccc(S(=O)(=O)O)c2)c(C)cc1/N=N\\c1ccc(/C=C/c2ccc(/N=[N+](/[O-])c3ccc(/C=C/c4ccc(/N=N\\c5cc(C)c(/N=N/c6cccc(S(=O)(=O)O)c6)cc5OC)cc4)c(S(=O)(=O)O)c3)cc2S(=O)(=O)O)cc1", "> 100 µM (inactive)"),
    ("FC(F)(F)c1ccc2c(c1)nc(Cc1ccccc1)n2C[C@@H]1CCCN2CCCCC12 (some centres undefined)", "16.7 µM (inactive)"),
]

Consider now this further molecule.
May I ask what GI50 has been recorded for CCOC(=O)C1Cc2[nH]c3ccccc3c2C(C)C1C (centres undefined) ?
10.8 µM (inactive)

====

- Test system: SK-OV-3
- experiment-notes: NCI tumour cell line growth inhibition, 48 h
Active and inactive are the calls of the source. Rule as the data show it: active = GI50 up to about 1.1 µM and inactive = higher.
Please answer using one outcome listed in active, inactive

Solved cases below.
# compound, class
measured = [
    ("COc1cc2c(/C=C3/C(=O)Nc4ccc(Cl)cc43)c(Cl)[nH]c2cc1C", "active"),
    ("Oc1c(N2CCCCC2)cc(-c2cc(N3CCCCC3)c(O)c3ccccc23)c2ccccc12", "inactive"),
    ("CN(C)c1ccc(/C=c2/c3ccccc3n3nc4ccccc4c23)cc1", "inactive"),
]

Below: the item to evaluate.
Status in this test for S=C1OC2CCCC[C@H]2O1 (some centres undefined) ?
inactive

====

- Tested on: HT-29
- experiment-notes: NCI tumour cell line growth inhibition, 48 h
Active and inactive are the calls of the source. Cut-off read from the data, not from the text of the source: active = GI50 up to about 1.1 µM and inactive = higher.
GI50 reference

Reference set, count: 5
# compound, system-under-test, GI50
rows = [
    ("COc1ccc2c(c1)C(=O)c1ccc(OC)cc1C2=S", "HT-29", "> 100 µM (inactive)"),
    ("O=C1C/C(=C\\c2ccccc2)C(=O)c2ccccc2N1", "HT-29", "18.4 µM (inactive)"),
    ("COc1ccc([S+]([O-])Cc2cc(OC)c(OC)c(OC)c2)cc1 (stereo unspecified)", "HT-29", "31.3 µM (inactive)"),
    ("CCOC(=O)C(Cc1cn(S(=O)(=O)c2ccccc2)c2ccccc12)(NC(C)=O)C(=O)OCC", "HT-29", "58.5 µM (inactive)"),
    ("COc1cc(C)cc2c(-c3c(O)cc(O)c4c3C[C@H](C)N[C@H]4C)cc(-c3cc(-c4c(O)cc(O)c5c4C[C@H](C)N[C@H]5C)c4cc(C)cc(OC)c4c3O)c(O)c12", "HT-29", "36 µM (inactive)"),
]

Consider now this further compound.
May I ask what GI50 has been recorded for N#C/C(=C\c1ccc(F)cc1)c1nc2ccccc2c(=O)[nH]1 ?
> 100 µM (inactive)

====

- System: UACC-257
- experiment-notes: NCI tumour cell line growth inhibition, 48 h
Activity calls are given as the source filed them. Cut-off read from the data, not from the text of the source: active = GI50 up to about 1.1 µM and inactive = higher.
Please answer using one outcome listed in true = active, false = inactive

# compound, class
data = [
    ("COC1(OC)c2no[n+]([O-])c2C(OC)(OC)c2c1no[n+]2[O-]", "false"),
    ("O=C(c1ccccc1)c1nnc(C(=O)c2ccccc2)nn1", "false"),
    ("N=C(N)N/N=C(\\c1ccc(F)cc1)c1ccc(C(F)(F)F)cc1", "false"),
    ("COC(=O)C1[C@H](C(=O)OC)C1(Br)CBr (stereo not given in full)", "false"),
    ("Cc1ccccc1/N=N/c1c(-c2ccccc2)nn(C(=O)CC(=O)Nc2cccc(Cl)c2)c1-c1ccccc1", "true"),
    ("CCOC(=O)Oc1cc2c(c(OC)c1OC)-c1ccc(OC)c(=O)cc1C(NC(C)=O)CC2 (stereo not given)", "true"),
    ("CCOC(=O)CNC(=O)c1nc[nH]c1/N=N/N(C)C", "false"),
    ("O=C(Nc1ccc(Cl)cc1)c1cccc([N+](=O)[O-])c1O", "false"),
]

Status in this test for O=[N+]([O-])c1cc2ncc(-c3ccccc3)c(O)c2cc1/C(Cl)=C/c1ccccc1 ?
false

Status in this test for Cc1nn(C(=O)Cc2ccccc2)c2c1C(c1ccccc1)SC(=N)N2 (stereo not given) ?
false
